Values from paper PMC10698726

target.or.test.system: OCT2 (Homo sapiens)
test.description: Inhibition of model substrate uptake in OCT2-overexpressing HEK293 cells
protocol.conditions: OCT2; 20 μM inhibitor, 2 μM (S,S)-ethambutol, 5 min
For each of the compounds below, state its (S,S)-Ethambutol inhibition [%].
Give bare numbers, in %.

compound: O=C(OC1C[N+]2(CCCOc3ccccc3)CCC1CC2)C(O)(c1cccs1)c1cccs1 [(S)-Aclidinium]
measurement.unit: %
endpoint.value: 2.7
//
compound: N[C@H]1CONC1=O [(S)-Cycloserine]
measurement.unit: %
endpoint.value: 0.8
//
compound: OC[C@@H](O)CN1CCN(c2ccccc2)CC1 [(S)-Dropropizine]
measurement.unit: %
endpoint.value: 20.5
//
compound: CCN1CCC[C@H]1CNC(=O)c1cc(S(=O)(=O)CC)c(N)cc1OC [(S)-Amisulpride]
measurement.unit: %
endpoint.value: -13.2
//
compound: N[C@@H]1CONC1=O [(R)-Cycloserine]
measurement.unit: %
endpoint.value: 5.0
//
compound: CNCC[C@H](Oc1ccc(C(F)(F)F)cc1)c1ccccc1 [(S)-Fluoxetine]
measurement.unit: %
endpoint.value: 6.4
//
compound: CN(C)CCO[C@@](C)(c1ccccc1)c1ccccn1 [(S)-Doxylamine]
measurement.unit: %
endpoint.value: 26.3
//
compound: CCN(CC)CC#CCOC(=O)[C@@](O)(c1ccccc1)C1CCCCC1 [(S)-Oxybutynine]
measurement.unit: %
endpoint.value: 24.5

Query compound follows.
Enquiry: API: value(readout= (S,S)-Ethambutol inhibition [%], system= OCT2 (Homo sapiens), query= O=C(OC1C[N+]2(CCCOc3ccccc3)CCC1CC2)C(O)(c1cccs1)c1cccs1 [(R)-Aclidinium] )
Return: -0.8

* * *

target.or.test.system: OCT1 (Homo sapiens, UniProt O15245)
Sequence (O15245 whole entry): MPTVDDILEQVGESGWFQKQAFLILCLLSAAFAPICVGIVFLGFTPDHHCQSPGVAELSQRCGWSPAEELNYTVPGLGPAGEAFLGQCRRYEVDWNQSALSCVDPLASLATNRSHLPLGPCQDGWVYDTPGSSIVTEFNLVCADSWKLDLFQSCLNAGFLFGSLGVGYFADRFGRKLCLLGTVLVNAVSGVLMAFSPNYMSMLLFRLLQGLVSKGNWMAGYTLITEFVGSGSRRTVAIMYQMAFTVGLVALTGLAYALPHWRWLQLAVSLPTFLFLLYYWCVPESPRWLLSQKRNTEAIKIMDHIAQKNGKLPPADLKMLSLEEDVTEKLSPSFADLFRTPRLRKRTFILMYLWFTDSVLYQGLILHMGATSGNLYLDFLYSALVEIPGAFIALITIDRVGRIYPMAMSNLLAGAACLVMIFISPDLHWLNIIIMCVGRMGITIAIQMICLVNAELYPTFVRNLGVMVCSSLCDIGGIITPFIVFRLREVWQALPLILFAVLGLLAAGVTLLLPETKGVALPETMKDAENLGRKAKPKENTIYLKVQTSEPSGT
test.description: Inhibition of model substrate uptake in OCT1-overexpressing HEK293 cells
Format: cell-based
Set-up: expressed in transfected cells; host or cells: HEK293
protocol.conditions: human, OCT1-overexpressing HEK293 cells, pH 7.4, probe sumatriptan (2 μM), OCT1; 20 μM inhibitor, 2 μM sumatriptan, 5 min; read-out: Sumatriptan inhibition [%]
For each of the molecules below, state its inhibition at 5 min, 20 μM.
Numbers only, in %.

These solved cases illustrate the format of a correct answer.
molecule: CCCCN1CCCC[C@@H]1C(=O)Nc1c(C)cccc1C [(R)-Bupivacaine]
inhibition at 5 min, 20 μM (%): 59.2
//
molecule: CN(C)CCc1c[nH]c2ccc(C[C@H]3COC(=O)N3)cc12 [(S)-Zolmitriptan]
inhibition at 5 min, 20 μM (%): 44.5
//
molecule: C#CCN[C@@H]1CCc2ccccc21 [(R)-Rasagiline]
inhibition at 5 min, 20 μM (%): 42.7
//
molecule: CC(C)NC[C@@H](O)COc1cccc2ccccc12 [(R)-Propranolol]
inhibition at 5 min, 20 μM (%): 84.3

Query molecule follows.
Enquiry: Item under review: Cc1cccc(C)c1OC[C@H](C)N [(S)-Mexiletine] . Reported inhibition at 5 min, 20 μM?
Return: 84.3

* * *

target.or.test.system: OCT3 (Homo sapiens)
Construct: expressed in transfected cells; host or cells: HEK293
Sequence (O75751 whole entry): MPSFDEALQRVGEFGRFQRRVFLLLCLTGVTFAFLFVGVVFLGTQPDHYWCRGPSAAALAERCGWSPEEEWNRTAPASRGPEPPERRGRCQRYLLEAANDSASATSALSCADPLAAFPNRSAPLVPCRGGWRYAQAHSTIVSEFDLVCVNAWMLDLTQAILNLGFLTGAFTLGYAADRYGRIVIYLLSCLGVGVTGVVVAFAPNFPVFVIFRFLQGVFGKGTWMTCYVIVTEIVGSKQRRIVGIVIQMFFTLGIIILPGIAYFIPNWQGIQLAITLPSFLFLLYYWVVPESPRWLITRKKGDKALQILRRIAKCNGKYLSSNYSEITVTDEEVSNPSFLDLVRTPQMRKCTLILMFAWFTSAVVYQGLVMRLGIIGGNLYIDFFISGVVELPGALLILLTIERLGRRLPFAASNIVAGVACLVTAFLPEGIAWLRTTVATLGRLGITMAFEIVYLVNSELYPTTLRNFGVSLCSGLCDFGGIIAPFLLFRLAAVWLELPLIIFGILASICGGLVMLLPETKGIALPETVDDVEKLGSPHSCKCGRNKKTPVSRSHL
test.description: Inhibition of model substrate uptake in OCT3-overexpressing HEK293 cells
Format: cell-based
protocol.conditions: HEK293, 5 min, read-out: (S,S)-Ethambutol inhibition [%], OCT3; 20 μM inhibitor, 2 μM (S,S)-ethambutol, 5 min
For each of the molecules below, state its inhibition at 20 µM.
Give bare numbers, in %.

These solved cases illustrate the format of a correct answer.
molecule: Cc1cccc(C)c1OC[C@H](C)N [(S)-Mexiletine]
inhibition at 20 µM, %: 11.8
//
molecule: CNC[C@H](O)c1cccc(O)c1 [(R)-Phenylephrine]
inhibition at 20 µM, %: 5
//
molecule: C=C[C@H]1C[N@@]2CC[C@H]1C[C@@H]2[C@@H](O)c1ccnc2ccc(OC)cc12
inhibition at 20 µM, %: 85.9
//
molecule: CC(C)NC[C@@H](O)COc1ccc(CC(N)=O)cc1 [(R)-Atenolol]
inhibition at 20 µM, %: 0.9
//
molecule: CC(C)(C)NC[C@H](O)COc1nsnc1N1CCOCC1 [(S)-Timolol]
inhibition at 20 µM, %: 11.1
//
molecule: Cc1cccc(C)c1OC[C@@H](C)N [(R)-Mexiletine]
inhibition at 20 µM, %: 11.6
//
molecule: CN(C)CCC[C@]1(c2ccc(F)cc2)OCc2cc(C#N)ccc21 [(R)-Citalopram]
inhibition at 20 µM, %: 17.2
//
molecule: O=C(OC1C[N+]2(CCCOc3ccccc3)CCC1CC2)C(O)(c1cccs1)c1cccs1 [(R)-Aclidinium]
inhibition at 20 µM, %: 62.8

// each listed molecule needs a value for inhibition at 20 µM
1. CN(C)CCO[C@](C)(c1ccccc1)c1ccccn1 [(R)-Doxylamine]
2. CCCCN1CCCC[C@H]1C(=O)Nc1c(C)cccc1C [(S)-Bupivacaine]
3. OC[C@H](O)CN1CCN(c2ccccc2)CC1 [(R)-Dropropizine]
4. CCCN[C@H]1CCc2nc(N)sc2C1 [(S)-Pramipexole]
5. CN(C)CCC[C@@]1(c2ccc(F)cc2)OCc2cc(C#N)ccc21 [(S)-Citalopram]

Return:
1: 23.4; 2: 33.4; 3: 5.8; 4: 30.2; 5: 31.7

// each listed molecule needs a value for inhibition at 20 µM
1. CNC[C@@H](O)c1cccc(O)c1 [(S)-Phenylephrine]
2. COc1ccccc1OCCNC[C@@H](O)COc1cccc2[nH]c3ccccc3c12 [(R)-Carvedilol]
3. C=C[C@H]1C[N@@]2CC[C@H]1C[C@H]2[C@H](O)c1ccnc2ccc(OC)cc12

Return:
[5.6, 48.6, 46.2]

// each listed molecule needs a value for inhibition at 20 µM
1. CC(C)Cc1ccc([C@@H](C)C(=O)O)cc1 [(R)-Ibuprofen]
2. CC(C)NC[C@H](O)COc1ccc(CC(N)=O)cc1 [(S)-Atenolol]
3. CCCN[C@@H]1CCc2nc(N)sc2C1 [(R)-Pramipexole]
4. CN(C)CCc1c[nH]c2ccc(C[C@H]3COC(=O)N3)cc12 [(S)-Zolmitriptan]
5. CCCCN1CCCC[C@@H]1C(=O)Nc1c(C)cccc1C [(R)-Bupivacaine]
6. CC(C)(C)NC[C@H](O)c1ccc(O)c(CO)c1 [(R)-Salbutamol]
7. CC(C)Cc1ccc([C@H](C)C(=O)O)cc1 [(S)-Ibuprofen]
8. C#CCN[C@@H]1CCc2ccccc21 [(R)-Rasagiline]

Return:
1. 3.2
2. 2.9
3. 23.1
4. 55
5. 50.3
6. 19.5
7. 11.3
8. 13.4

* * *

target.or.test.system: OCT2 (Homo sapiens)
Sequence (O15244 1-555): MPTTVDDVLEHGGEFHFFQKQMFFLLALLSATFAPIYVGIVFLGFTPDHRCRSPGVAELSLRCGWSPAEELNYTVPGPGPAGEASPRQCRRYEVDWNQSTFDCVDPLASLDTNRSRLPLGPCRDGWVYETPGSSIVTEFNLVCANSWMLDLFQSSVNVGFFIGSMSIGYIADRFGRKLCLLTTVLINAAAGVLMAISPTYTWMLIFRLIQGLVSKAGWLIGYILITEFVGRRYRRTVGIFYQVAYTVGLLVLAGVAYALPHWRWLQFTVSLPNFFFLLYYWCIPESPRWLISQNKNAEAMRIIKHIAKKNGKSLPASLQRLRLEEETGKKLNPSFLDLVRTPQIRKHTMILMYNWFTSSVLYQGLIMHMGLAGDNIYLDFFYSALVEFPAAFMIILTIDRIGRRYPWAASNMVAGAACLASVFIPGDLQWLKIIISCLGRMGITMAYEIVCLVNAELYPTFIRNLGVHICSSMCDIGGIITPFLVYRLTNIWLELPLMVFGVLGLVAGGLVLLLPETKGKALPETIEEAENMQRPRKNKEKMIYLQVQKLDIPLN
test.description: Inhibition of model substrate uptake in OCT2-overexpressing HEK293 cells
protocol.conditions: human, OCT2-overexpressing HEK293 cells, pH 7.4, probe ASP+ (2 μM), ASP+ inhibition [%], OCT2; 20 μM inhibitor, 2 μM ASP+, 5 min
Experimental: All experiments were carried out in transporter-overexpressing HEK293 cells. […] As for the transport experiments, 300,000 HEK293 cells were plated in poly-D-lysine-coated 24-well plates 2 days ahead of the experiment. […] Cell lysates were transferred into a black 96-well plate for the fluorescence measurement of ASP^+ or used for sample preparation for LC–MS/MS analysis. […] Fluorescence quantification was performed in technical duplicates. […]
readout.type: inhibition at 5 min, 20 μM (%)
Answers are plain numbers, in %.

molecule: CNCC[C@H](Oc1cccc2ccccc12)c1cccs1 [(S)-Duloxetine]
target.or.test.system: OCT2 (Homo sapiens)
inhibition at 5 min, 20 μM / %: 70.2

// each listed molecule needs a value for inhibition at 5 min, 20 μM
1. C=C[C@H]1C[N@@]2CC[C@H]1C[C@@H]2[C@@H](O)c1ccnc2ccc(OC)cc12
2. CNC[C@H](O)c1cccc(O)c1 [(R)-Phenylephrine]
3. C=C[C@H]1C[N@@]2CC[C@H]1C[C@H]2[C@H](O)c1ccnc2ccc(OC)cc12
4. CC(C)Cc1ccc([C@@H](C)C(=O)O)cc1 [(R)-Ibuprofen]

Return:
[93.4, 8.2, 76.9, 11.5]

// each listed molecule needs a value for inhibition at 5 min, 20 μM
1. N[C@@H]1CONC1=O [(R)-Cycloserine]
2. CN(C)CCO[C@](C)(c1ccccc1)c1ccccn1 [(R)-Doxylamine]
3. C#CCN[C@H]1CCc2ccccc21 [(S)-Rasagiline]
4. Cc1cccc(C)c1OC[C@H](C)N [(S)-Mexiletine]
5. NC[C@H](O)c1ccc(O)c(O)c1 [(R)-Norepinephrine]

Return:
1: 12.3; 2: 73.2; 3: 59.6; 4: 52.9; 5: 23.1
